assay: growth inhibitors of wild-type TIM10 yeast, confirmation, counter-screen for tim10-1 synthetic lethality project, single concentration, luminescence, S. cerevisiae (AID 463215);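 further: isogenic wild-type TIM10 control yeast grown in succinate dextrose medium; 0% = yeast with DMSO and 100% = medium wells lacking yeast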; conditions: S. cerevisiae tim10 strain growth, BacTiter-Glo luminescence, 24 h; at 10 µM; stronger effect = higher value
In all, about 4,600 compounds went through this assay and about 2,900 (63%) were called active. The set was probably picked from earlier hits. A selection follows.
inhibition: recorded values
Answer with a number only, understood to be in %.

{"Compound": "COc1cc(Br)cc(/C=N/c2ncn[nH]2)c1O", "Value Unit": "%", "Value Observed": 35}
{"Compound": "CCCc1[nH]nc2c1C(c1ccc(Br)s1)C(C#N)=C(N)O2 (stereo unspecified)", "Value Unit": "%", "Value Observed": 73.4}
{"Compound": "CN(C)c1ccnc2sc(C(=O)c3ccccc3)c(N)c12", "Value Unit": "%", "Value Observed": 25.4}
{"Compound": "S=C(NCc1ccc(Cl)cc1)NC12CC3CC(CC(C3)C1)C2", "Value Unit": "%", "Value Observed": 23.8}
{"Compound": "COc1ccc(C(=O)O/N=C(\\N)Cc2ccc(Cl)cc2Cl)cc1OC", "Value Unit": "%", "Value Observed": 86.7}

Which inhibition value belongs to `CC(=O)Cc1nsc(NC(=O)c2ccc(Cl)cc2Cl)n1` ?
17.2

Cool, now Cc1ccc(N2C(=O)C3C4C=CC(CC4)C3C2=O)cc1Cl (stereo unspecified)
0.2

Moving on to COc1ccc(NC(=O)/C(Cl)=C(/Cl)S(=O)Cc2ccc(C)cc2)cn1 (stereo unspecified)
88

Next compound up: COc1ccc(CS(=O)/C(Cl)=C(/Cl)C(=O)Nc2ccc(OC)nc2)cc1 (stereo unspecified)
78.3

Input c1ccc(-c2nnc3n2NC(c2ccc4c(c2)OCO4)S3)cc1 (stereo unspecified)
59.1

And the next one, `Cc1cccc(N=Nc2c(O)[nH]c3ccc(F)cc23)c1` ?
40.8

* * *

assay: growth inhibitors of wild-type TIM10 yeast, confirmation, counter-screen for tim10-1 synthetic lethality project, single concentration, luminescence, S. cerevisiae (AID 463215);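 further: isogenic wild-type TIM10 control yeast grown in succinate dextrose medium; 0% = yeast with DMSO and 100% = medium wells lacking yeast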; conditions: S. cerevisiae tim10 strain growth, BacTiter-Glo luminescence, 24 h; at 10 µM; stronger effect = higher value
About 2,900 (63%) of roughly 4,600 compounds were called active. So high a share suggests a set chosen from earlier hits. The list is a sample of the results.
Mark not fulfilled for inhibition values under 20%, and fulfilled for everything at or above.

Recorded results for 5 compounds are shown here.
{"Smi": "O=C(N/N=C\\c1cccc(Br)c1)c1ccccc1-n1cccc1", "Class Name": "not fulfilled"}
{"Smi": "COc1ccccc1-c1n[nH]c2c1[C@H](C)CC[C@H]2C(C)C", "Class Name": "fulfilled"}
{"Smi": "COc1ccc(C(=O)Nc2ccccc2C(=O)N/N=C/c2ccc(O)c(OC)c2)cc1", "Class Name": "fulfilled"}
{"Smi": "Cc1nc2sc(C(=O)c3ccccc3)c(N)c2c2c1CCCC2", "Class Name": "fulfilled"}
{"Smi": "COc1cc(/C=N/NC(=O)c2ccccc2)ccc1OS(=O)(=O)c1ccccc1", "Class Name": "not fulfilled"}

Next:
Check the entry `CCSC1=C(C#N)C(=O)n2c1cc1c2CCCC1` : does inhibition equal or exceed 20%?
fulfilled

* * *

assay: growth inhibitors of wild-type TIM10 yeast, confirmation, counter-screen for tim10-1 synthetic lethality project, single concentration, luminescence, S. cerevisiae (AID 463215);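 further: isogenic wild-type TIM10 control yeast grown in succinate dextrose medium; 0% = yeast with DMSO and 100% = medium wells lacking yeast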; details: S. cerevisiae tim10 strain growth, BacTiter-Glo luminescence, 24 h; at 10 µM
Among all 4,600 compounds or so, about 2,900 (63%) were called active.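 Rule for the calls: active = inhibition of yeast growth at or above a set limit in either of two replicates at 10 µM; inactive = the rest.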 The set was probably picked from earlier hits. These entries were drawn from the full list.
Your answer must be one of the following: active, inactive

{"Compound": "O=C(Nc1ccccc1Cl)/C(Cl)=C(\\Cl)S(=O)c1ccccc1 (configuration not stated)", "Class Name": "active"}
{"Compound": "CNC(=O)/C(C#N)=C/c1c(F)cccc1Cl", "Class Name": "active"}
{"Compound": "CC(C)N(Cc1ccccc1)C(=S)Nc1ccc(OC(F)F)cc1", "Class Name": "inactive"}
{"Compound": "O=S(=O)(ON(c1ccccc1)S(=O)(=O)c1ccccc1)c1ccccc1", "Class Name": "inactive"}
{"Compound": "O=C1[C@@H](c2ccccc2)[C@@H](c2ccccc2)N1c1cccnc1", "Class Name": "active"}

Dear colleague, could you share the recorded outcome for `O=C(Nc1ccc(C(F)(F)F)cc1)c1cccc(-n2cnnn2)c1` when you have a moment?
inactive

Follow-up entry: `COc1ccc(C(=O)COC(=O)c2ccc([N+](=O)[O-])s2)cc1OC`
active

Next entry: `Cc1ccc(Nc2nc(Cl)c(C=O)s2)cc1`
inactive

And for `Cc1ccoc1C(=O)Nc1cccc(Oc2ccccc2)c1` ?
active

Quick one: `Cc1ccc2nc(-c3ccc(Br)cc3)cn2c1`
active

Now the compound `Cc1ccc(-c2cn3cc(C)ccc3n2)cc1`
active

Record: CC(NC(=S)Nc1ccccc1)C1COc2ccccc2O1 (configuration not stated)
active
